Data origin: PubChem BioAssay (NCATS)

study.system: Retinoic acid receptor RXR-alpha (Homo sapiens)
method.notes: qHTS assay for small molecule antagonists of retinoid X receptor alpha signaling (AID 588546);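 further: cells stimulated with 9-cis-retinoic acid as agonist; on the % scale 0 is the no-effect control and ±100 the full control effect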
run.parameters: HEK293T RXRa-UAS-bla, beta-lactamase ratio, antagonist mode
Records with an inconclusive call do not appear. The source made the active and inactive calls. The call rests on the fitted dose curve; in most records, active means well fitted inhibition curve with a large enough effect in the signal ratio, with a control signal flat (not every such curve was filed as active); inconclusive means small, poorly fitted or top-dose-only effect, or effect the other way, or a change in a side signal; inactive means no such curve, though single readings can be large or run the other way; the % refers to the signal ratio.
Overview of reported max response across a group of molecules:

| molecule | max response |
| --- | --- |
| CC(C)(C)OCC1CO1 (stereo not drawn) | -4.17% (inactive) |
| CC(CCl)OC(C)CCl (stereo not drawn) | 19.4% (inactive) |
| CC(C)(c1cc(Br)c(OCC(Br)CBr)c(Br)c1)c1cc(Br)c(OCC(Br)CBr)c(Br)c1 (stereo not drawn) | 2.49% (inactive) |
| CSCCC=O | 16.4% (inactive) |
| CC(O)CC(C)O (stereo not drawn) | 3.51% (inactive) |
| CC(C)N(C)C | 11.2% (inactive) |
| CC(C)=C1CCC(C)CC1=O (stereo not drawn) | 6.87% (inactive) |
| O=C1C=CCCC1 | -1.33% (inactive) |
| CCC(C)O (stereo not drawn) | 4.59% (inactive) |
| CCN(Cc1ccccc1)c1ccccc1 | -8.29% (inactive) |
| Cc1ccc2ccccc2c1[N+](=O)[O-] | 2.75% (inactive) |
| CCNS(=O)(=O)c1ccc(C)cc1 | 3.72% (inactive) |
| C1CCCC1 | -5.52% (inactive) |
| CC(C)(C)OC=O | 2.16% (inactive) |
| C=C(C)C(=O)OCC(C)C | -6.82% (inactive) |
| CN(C)CCCCl | -2.2% (inactive) |
| O=CNc1ccccc1 | 1.7% (inactive) |
| O=[N+]([O-])c1ccc(CCO)cc1 | 2.63% (inactive) |
| Cc1c(N)cccc1N | -6.28% (inactive) |
| CCc1ccccc1O | 5.77% (inactive) |
| O=C1CCC(=O)O1 | -2.46% (inactive) |
| O=c1[nH][nH]c(=O)c2cc([N+](=O)[O-])ccc12 | 10.6% (inactive) |
| Fc1ccccc1 | -5.23% (inactive) |
| CCOCC(=O)O | 4.52% (inactive) |
| Cc1ccc(C(=O)O)cc1 | -5.24% (inactive) |
| CCc1ccccc1 | 1.68% (inactive) |
| CC1(N)CCC(C(C)(C)N)CC1 (stereo not drawn) | 0.335% (inactive) |
| Cc1cc(C(=O)O)ccc1[N+](=O)[O-] | 36.9% (inactive) |
| CC(=O)OC(C)=O | 5.52% (inactive) |
| C/C=C(/C)C#N | 32% (inactive) |
| Cc1ccc(C(C)(C)C)cc1 | 4.12% (inactive) |
| O=Cc1cccc(Br)c1 | 4.36% (inactive) |
| C=C(C)C(N)=O | 23.8% (inactive) |

---

Below, each entry is listed alongside its reported activation.
method.notes: qHTS assay for small molecule activators of the nuclear factor-kappa B (NF-kB) signaling pathway (AID 651749); further: series mostly up to about 77 µM; % of control where 0% means no effect
run.parameters: NF-kB-bla ME-180 cells, beta-lactamase FRET ratio, 16 h; active compounds read high
From the text: National Center for Advancing Translational Sciences [NCATS] NIH Chemical Genomics Center [NCGC] U.S. Environmental Protection Agency [EPA] National Institutes of Environmental Health Sciences [NIEHS] National Toxicology Program [NTP] […] This system quantitates NF-kB activity using a FRET-based assay system where beta-lactamase expression disrupts FRET, allowing for fluorescent measurement of activity. […]
Inconclusive results are not listed.
metric.name: activation (%)

| molecule | val |
| --- | --- |
| O=C(O)CNC(=O)c1ccc(CO)o1 | 0.936 |
| Nc1cccc(N)c1 | -0.628 |
| CC1=C(/C=C/C(C)=C/C=C/C(C)=C\C=O)C(C)(C)CCC1 | -1.57 |
| Cc1cccc(C)c1O | -0.357 |
| O=Cc1ccccc1Cl | -1.13 |
| Cc1ccc2ncccc2c1 | -1.62 |
| CNC(=O)c1ccccc1 | -1.22 |
| C=CCCC | -0.388 |
| CCCCCCCCC/C=C/CC1CC(=O)OC1=O (centres undefined) | -0.282 |
| CCCCCCCCCCCCC1CO1 (centres undefined) | 0.702 |
| Cc1cscn1 | -0.548 |
| C=CCCCCCCC=C | -0.256 |
| CC1(N)CCC(C(C)(C)N)CC1 (centres undefined) | -1.08 |
| Nc1ccc([N+](=O)[O-])c(N)c1 | 0.47 |
| CCCCCCC=O | -0.682 |
| c1ccc2[nH]cnc2c1 | 1.42 |
| CCCCC(CC)CO (centres undefined) | -1.43 |
| CC/C=C/C#N | -2.54 |
| CCOC(C)(C)C | 0.0467 |
| O=C(O)c1ccccc1C(=O)O | -0.93 |
| OC1CCCC1 | 1.54 |
| Cc1cc(C)cc(N)c1 | 0.882 |
| CCCCCO | -0.261 |
| CCCCCCCCC | 0.37 |
| COC(=O)CS | -0.561 |
| CCCCC(CC)COCC1CO1 (centres undefined) | 0.588 |
| CCCCOCCOCCSC#N | 0.862 |
| CC(=O)c1cc(C)oc1C | -0.373 |
| Fc1ccccc1 | 0.343 |
| COC(=O)CCC(=O)OC | 0.407 |
| CNC(=O)N(c1ccccc1)c1ccccc1 | 0.192 |
| O=C(O)c1ccccc1[N+](=O)[O-] | 0.408 |
| CCc1ccccc1 | -1.59 |
| NC(=O)CCCCC(N)=O | 1.81 |
| CC(C)=C1CCC(C)CC1=O (centres undefined) | -0.315 |
| O=C(O)c1ccc(Cl)c(Cl)c1 | 0.147 |
| CNc1ccccc1 | -1.25 |
| Nc1cccc(S(=O)(=O)O)c1 | -0.968 |
| CC(=O)OCc1ccco1 | 0.228 |
| O=C1C=CCCC1 | -0.0951 |
| C=Cc1ccc(C=C)cc1 | 0.161 |
| CC(C)(C)OCC1CO1 (centres undefined) | 0.44 |
| N#CC1(O)CCCCC1 | -2.59 |
| CCCC=O | -4.7 |
| C[C@@H]1O[C@@H](O[C@@H]2[C@@H](O)[C@H](OCCc3ccc(O)c(O)c3)O[C@H](CO[C@@H]3O[C@H](CO)[C@@H](O)[C@H](O)[C@H]3O)[C@H]2OC(=O)/C=C/c2ccc(O)c(O)c2)[C@H](O)[C@H](O)[C@H]1O | -0.414 |
| CC=C(Cl)Cl | -0.14 |
| OC/C(Br)=C(\Br)CO | 0.22 |
| Cc1cccc2ccccc12 | -1.12 |
| CC(=C/C=C/C(C)=C/C=C/C=C(C)/C=C/C=C(C)/C=C/C(=O)O)/C=C/C(=O)O | -0.299 |
| OCCO | -0.33 |
| NCCCCCCN | -0.106 |
| C=CCOC(=O)COCCC(C)C | -0.303 |
| Oc1cccc(Nc2ccccc2)c1 | 0.49 |
| Cc1ccc(C)c(N)c1 | 0.0574 |
| CC/C=C1/OC(=O)c2ccccc21 | -0.0092 |
| BrC/C=C/CBr | 0.2 |
| CCCCC(C=O)CC (centres undefined) | -0.855 |
| Cc1ccccc1Br | -0.604 |
| C=CC(=O)NC(C)C | 0.588 |
| CC(C)Nc1ccccc1 | 0.185 |
| O=[N+]([O-])c1ccc(Cl)cc1Cl | 0.0961 |
| CC(O)COC(C)(C)C (centres undefined) | -0.964 |
| Cc1ccc(S(=O)(=O)NC2CCCCC2)cc1 | -0.807 |
| CCCCC=O | 0.166 |
